molecular target: Vascular endothelial growth factor receptor 2 (Homo sapiens, UniProt P35968)
Sequence (P35968 whole entry): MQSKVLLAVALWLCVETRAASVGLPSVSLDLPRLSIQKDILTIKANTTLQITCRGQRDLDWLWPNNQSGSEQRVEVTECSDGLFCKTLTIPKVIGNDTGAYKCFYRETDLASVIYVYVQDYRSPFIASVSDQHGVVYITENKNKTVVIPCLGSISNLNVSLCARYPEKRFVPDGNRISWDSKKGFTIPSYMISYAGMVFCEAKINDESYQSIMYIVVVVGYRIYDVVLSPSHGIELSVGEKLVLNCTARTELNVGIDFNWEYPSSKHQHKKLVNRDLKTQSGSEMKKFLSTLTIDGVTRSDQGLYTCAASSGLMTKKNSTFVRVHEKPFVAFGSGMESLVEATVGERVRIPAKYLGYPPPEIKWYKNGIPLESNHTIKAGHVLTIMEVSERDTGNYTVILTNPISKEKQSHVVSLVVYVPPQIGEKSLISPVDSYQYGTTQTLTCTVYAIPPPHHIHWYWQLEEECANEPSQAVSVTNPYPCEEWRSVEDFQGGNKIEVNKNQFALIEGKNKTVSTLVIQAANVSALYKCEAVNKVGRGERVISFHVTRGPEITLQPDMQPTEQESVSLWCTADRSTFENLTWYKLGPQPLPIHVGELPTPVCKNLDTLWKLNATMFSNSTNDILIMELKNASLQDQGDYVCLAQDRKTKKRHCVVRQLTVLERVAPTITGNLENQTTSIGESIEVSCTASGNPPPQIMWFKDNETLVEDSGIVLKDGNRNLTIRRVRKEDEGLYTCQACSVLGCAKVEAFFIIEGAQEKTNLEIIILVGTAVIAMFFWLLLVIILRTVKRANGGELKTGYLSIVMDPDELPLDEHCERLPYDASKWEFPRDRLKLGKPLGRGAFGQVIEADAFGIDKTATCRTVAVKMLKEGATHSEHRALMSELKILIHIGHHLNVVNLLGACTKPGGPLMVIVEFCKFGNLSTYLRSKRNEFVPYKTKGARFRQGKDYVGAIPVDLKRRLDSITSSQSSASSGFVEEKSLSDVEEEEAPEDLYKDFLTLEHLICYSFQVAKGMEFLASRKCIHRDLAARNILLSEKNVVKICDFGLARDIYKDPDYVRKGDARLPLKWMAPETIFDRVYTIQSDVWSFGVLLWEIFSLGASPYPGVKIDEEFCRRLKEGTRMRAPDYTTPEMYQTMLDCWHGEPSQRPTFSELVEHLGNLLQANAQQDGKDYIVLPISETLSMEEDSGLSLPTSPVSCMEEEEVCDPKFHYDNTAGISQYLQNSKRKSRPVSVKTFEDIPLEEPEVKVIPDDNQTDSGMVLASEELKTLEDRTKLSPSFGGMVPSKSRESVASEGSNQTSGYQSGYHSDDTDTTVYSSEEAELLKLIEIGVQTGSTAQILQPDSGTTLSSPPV
IC50 under 6 µM gets fulfilled, anything at or over 6 µM gets not fulfilled.

Please review the following examples before continuing.
Is 6 µM strictly greater than the compound's reported IC50? compound: CCNC(=O)Nc1ccc(-c2ccnc3[nH]nc(C)c23)cc1
not fulfilled

hey, is IC50 for Cc1n[nH]c2nccc(-c3ccc(NC(=S)Nc4cccc(Br)c4)cc3)c12 lower than 6 µM or not?
not fulfilled

Quick check: does Cc1cccc(NC(=O)Nc2ccc(-c3ccnc4[nH]nc(C)c34)cc2)c1 have IC50 under 6 µM?
fulfilled

Record Cc1n[nH]c2nccc(-c3ccc(NC(=O)Nc4ccc5ccccc5c4)cc3)c12 : is its IC50 strictly below 6 µM?
not fulfilled

Take the compound Cc1n[nH]c2nccc(-c3ccc(NC(=O)NCc4cccs4)cc3)c12 and say whether its IC50 is less than 6 µM.
fulfilled

---
Does the reported IC50 of Cc1n[nH]c2nccc(-c3ccc(NC(=O)Nc4ccccc4N4CCOCC4)cc3)c12 stay below 6 µM?
not fulfilled

Given the entry CCN(CC)c1cccc(NC(=O)Nc2ccc(-c3ccnc4[nH]nc(C)c34)cc2)c1 , would its reported IC50 be below 6 µM?
not fulfilled

Report whether reported IC50 is lower than 6 µM (strictly) for Cc1n[nH]c2nccc(-c3ccc(NC(=O)NCCCc4ccccc4)cc3)c12
fulfilled

---

biological target: Mast/stem cell growth factor receptor Kit (Homo sapiens, UniProt P10721)
Sequence (P10721 whole entry): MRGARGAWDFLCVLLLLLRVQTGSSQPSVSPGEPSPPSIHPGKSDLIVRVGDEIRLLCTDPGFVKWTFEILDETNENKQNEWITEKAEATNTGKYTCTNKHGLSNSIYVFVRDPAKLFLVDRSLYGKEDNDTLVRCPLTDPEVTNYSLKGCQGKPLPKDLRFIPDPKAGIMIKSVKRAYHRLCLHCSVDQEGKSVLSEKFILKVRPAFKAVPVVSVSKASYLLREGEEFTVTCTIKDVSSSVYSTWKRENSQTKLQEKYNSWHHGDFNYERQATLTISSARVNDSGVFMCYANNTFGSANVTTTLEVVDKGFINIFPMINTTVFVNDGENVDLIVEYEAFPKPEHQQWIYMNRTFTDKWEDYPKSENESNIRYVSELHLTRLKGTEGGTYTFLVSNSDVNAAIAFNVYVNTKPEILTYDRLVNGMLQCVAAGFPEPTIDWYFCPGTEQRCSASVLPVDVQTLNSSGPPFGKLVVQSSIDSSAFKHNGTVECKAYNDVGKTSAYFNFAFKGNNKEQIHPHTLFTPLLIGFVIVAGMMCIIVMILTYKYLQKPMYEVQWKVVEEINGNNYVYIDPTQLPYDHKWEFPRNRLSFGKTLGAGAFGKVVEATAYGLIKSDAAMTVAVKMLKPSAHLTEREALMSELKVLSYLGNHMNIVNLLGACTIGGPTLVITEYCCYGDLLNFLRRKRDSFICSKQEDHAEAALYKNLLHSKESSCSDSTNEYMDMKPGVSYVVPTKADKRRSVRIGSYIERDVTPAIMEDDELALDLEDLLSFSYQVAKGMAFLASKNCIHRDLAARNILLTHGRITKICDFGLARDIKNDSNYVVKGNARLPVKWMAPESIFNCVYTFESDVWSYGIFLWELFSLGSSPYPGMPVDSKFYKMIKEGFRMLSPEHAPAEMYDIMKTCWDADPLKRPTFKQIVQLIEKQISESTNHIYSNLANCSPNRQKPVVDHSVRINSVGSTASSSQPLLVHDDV
EXPERIMENTAL ENDPOINT: log10(IC50) (log10 of the value in nM)
Hello, just confirming the data are log10 of IC50 with units of nM.

In the examples that follow, each entry is paired with its recorded log10(IC50).
For this molecule ( Cc1n[nH]c2nccc(-c3ccc(NC(=O)Nc4cccc(Cl)c4)cc3)c12 ), measured log10(IC50) is 3.38

What the record says about Cc1ccc(N2CCOCC2)c(NC(=O)Nc2ccc(-c3ccnc4[nH]nc(C)c34)cc2)c1 : log10(IC50) is 2.60

Briefly, log10(IC50) measured for CCc1cccc(NC(=O)Nc2ccc(-c3ccnc4[nH]nc(C)c34)cc2)c1 : 0.59

Entry under test: Cc1n[nH]c2nccc(-c3ccc(NC(=O)Nc4ccc(N(C)C)cc4)cc3)c12 . Its log10(IC50) was 0.97

Query Cc1n[nH]c2nccc(-c3ccc(NC(=O)Nc4cccc5ccccc45)cc3)c12 yields log10(IC50) of 0.56

---
Cc1cc(N2CCN(C)CC2)ccc1NC(=O)Nc1ccc(-c2ccnc3[nH]nc(C)c23)cc1 has a reported log10(IC50) of 3.35

// log10(IC50) lookup, molecule = Cc1n[nH]c2nccc(-c3ccc(NC(=O)NC4CC4)cc3)c12 , result: 2.74

The recorded log10(IC50) for entry CCN(CC)c1cccc(NC(=O)Nc2ccc(-c3ccnc4[nH]nc(C)c34)cc2)c1 equals 1.08

Lab note: CCCNC(=O)Nc1ccc(-c2ccnc3[nH]nc(C)c23)cc1 gave log10(IC50) of 4.33

Entry Cc1n[nH]c2nccc(-c3ccc(NC(=O)Nc4ccccc4N4CCOCC4)cc3)c12 — recorded log10(IC50) = 3.81

// Cc1cc(NC(=O)Nc2ccc(-c3ccnc4[nH]nc(C)c34)cc2)ccc1N1CCOCC1 : log10(IC50) value = 0.38

Record CCCCCNC(=O)Nc1ccc(-c2ccnc3[nH]nc(C)c23)cc1 . Reported log10(IC50): 0.54
